target: mouse Src SH3 domain, residues 85-142 (mouse, UniProt P05480-2 85-142); assay: NMR titration
value_kind: pKd
As a rule, pKd stands for the negative log10 of the concentration, concentration in M.

Give the measured pKd for Ac-RALPSIPKL-NH2 [peptide P3 (unlabelled control peptide derived from focal adhesion kinase, RALPSIPKL)]
4.25
